Consider the following compounds; for each one, report its normalized growth.
experiment: chemical genetic growth profiling, strain panel (AID 1159580);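 note: tested at 20 µM; growth read once vehicle control cultures reached saturation at 30 °C; 1 = growth at the plate median or of vehicle wells; lower values mean less growth of the strain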; settings: S. cerevisiae deletion strains, growth OD, locus YAL021C, strain ccr4, stronger effect = lower value
About 2,000 (36%) of roughly 5,500 compounds were called active. About 18% were inconclusive and are not listed. The list shows a part of the results.
Give bare numbers.

{"columns": ["Compound", "Reported Metric", "Assay Result"],
 "data": [
  ["N#CC(O[C@@H]1O[C@H](CO[C@@H]2O[C@H](CO)[C@@H](O)[C@H](O)[C@H]2O)[C@@H](O)[C@H](O)[C@H]1O)c1ccccc1 (some centres not stated)", "normalized growth", 0.965],
  ["NC(Cc1c[nH]c2ccccc12)C(=O)O (configuration not stated)", "normalized growth", 1],
  ["COc1c(-c2coc3cc4c(cc3c2=O)CC(O)C(C)(C)O4)ccc2c1C=CC(C)(C)O2 (configuration not stated)", "normalized growth", 0.992],
  ["CCCCCCCCCCCCCCC(C(=O)O)C(O)(CC(=O)OC)C(=O)O (configuration not stated)", "normalized growth", 1.04],
  ["NNc1nncc2ccccc12", "normalized growth", 0.991],
  ["COc1cc(C(=O)O[C@H]2CC[C@@]3(C)[C@@H]4CC[C@H]5[C@]6(O)C[C@H](O)[C@@]7(O)[C@@H](CN8C[C@@H](C)CC[C@H]8[C@@]7(C)O)[C@]6(O)C[C@@]53O[C@]24O)cc(OC)c1OC", "normalized growth", 1],
  ["CC(C)(C#N)O[C@@H]1O[C@H](CO)[C@@H](O)[C@H](O)[C@H]1O", "normalized growth", 1.01],
  ["NC(N)=N/N=C/c1c(Cl)cccc1Cl", "normalized growth", 0.887]
]}

Please state, for each entry, its recorded normalized growth.
1. O=C(O)CC(O)(CC(=O)O)C(=O)O
2. COc1ccc2c3c([nH]c2c1)C(C)=NCC3
3. Nc1c2ccccc2nc2ccccc12 (tested in a mixture with another compound)
4. CCOC(=O)OC(C)OC(=O)C1N2C(=O)C(NC(=O)[C@H](N)c3ccccc3)C2SC1(C)C (some centres not stated)

stdout:
1. 1
2. 0.997
3. 0.67
4. 0.986

====

assay: chemical genetic growth profiling, strain panel (AID 1159580);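 note: tested at 20 µM; growth read once vehicle control cultures reached saturation at 30 °C; 1 = growth at the plate median or of vehicle wells; lower values mean less growth of the strain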; settings: S. cerevisiae deletion strains, growth OD, locus YLL041C, strain sdh2
About 2,000 (36%) of roughly 5,500 compounds were called active. Roughly 18% stayed inconclusive and do not appear here. Cut-off read from the data, not from the text of the source: active = normalized growth mostly below about 0.91 (no sharp cut-off); inconclusive = no clear call, values can overlap the other calls; inactive = mostly above about 0.92. The list shows a part of the results.
Outcomes you can answer with include only these: True for active, False for inactive

Solved entries (count: 3):
{"columns": ["Compound", "Discrete Label"],
 "data": [
  ["CC1(C)CC[C@]2(C(=O)O)CC[C@]3(C)C(=CCC4[C@@]5(C)CC[C@H](O)[C@@](C)(CO)C5CC[C@]43C)C2C1 (stereo partly drawn)", "True"],
  ["Cc1cc(O)cc(C)c1Cl", "False"],
  ["NNc1nncc2ccccc12", "False"]
]}

stdin: Test call, this compound: CCN1C[C@]2(OC(=O)c3ccccc3NC(C)=O)CCC(OC)[C@]34C1[C@H](CC23)[C@@]1(O)CC(OC)[C@H]2CC4C1(O)[C@H]2OC (stereo partly drawn)
stdout: False

stdin: Test call, this compound: `O=C1c2c(O)cccc2Cc2cccc(O)c21`
stdout: False

stdin: Test call, this compound: CC(=O)O[C@H]1CC[C@@]2(C)C(CC[C@]3(C)C2CC=C2C4CC(C)(C)CC[C@]4(C)CC[C@]23C)C1(C)C (stereo partly drawn)
stdout: False

stdin: Test call, this compound: CC(CC(=O)C(O)C(C)(C)O)C1C(=O)CC2(C)C3=CCC4C(C)(C)C(OC5OCC(O)C(O)C5O)CCC45CC35C(O)CC12C (stereo not drawn)
stdout: False

stdin: Test call, this compound: `CC(C)(C#N)O[C@@H]1O[C@H](CO)[C@@H](O)[C@H](O)[C@H]1O`
stdout: False

stdin: Test call, this compound: OC(CCN1CCCCC1)(c1ccccc1)C1CCCCC1 (stereo not drawn)
stdout: False
